target: Platelet-activating factor receptor (Oryctolagus cuniculus); assay: In vitro inhibitory activity against PAF receptor using [3H]PAF as radioligand in rabbit platelets
measurement-kind: IC50

- compound: "C=C1CCC2[C@@](C)(CO)CCC[C@]2(C)[C@H]1CCC1=CCOC1=O (stereo not given in full)"
  IC50: "30 µM"
- compound: "C=C1CCC2[C@](C)(CCC[C@]2(C)C(=O)OC)[C@H]1CCc1ccoc1 (stereo not given in full)"
  IC50: "> 1000 µM"
- compound: "COC(=O)[C@@]1(C)CCC[C@@]2(C)C1CCC(C)[C@@H]2CCC1CCOC1=O (stereo not given in full)"
  IC50: "4.8 µM"
- compound: "C=C1CCC2[C@@](C)(COC)CCC[C@]2(C)[C@H]1CCC1=CCOC1=O (stereo not given in full)"
  IC50: "1.7 µM"

Next, consider the following compound.
So what's the measured IC50 for this one? C=C1CCC2[C@](C)(CCC[C@]2(C)C(=O)OC)[C@H]1CCC1=CC(=O)OC1 (stereo not given in full) 6 µM
